- ASSAY SYSTEM: T1, mouse ApoE (mouse, UniProt P08226 19-311, limits assumed)
- T1 construct: also called msApoE; ms ApoE
- T1 sequence (looked up): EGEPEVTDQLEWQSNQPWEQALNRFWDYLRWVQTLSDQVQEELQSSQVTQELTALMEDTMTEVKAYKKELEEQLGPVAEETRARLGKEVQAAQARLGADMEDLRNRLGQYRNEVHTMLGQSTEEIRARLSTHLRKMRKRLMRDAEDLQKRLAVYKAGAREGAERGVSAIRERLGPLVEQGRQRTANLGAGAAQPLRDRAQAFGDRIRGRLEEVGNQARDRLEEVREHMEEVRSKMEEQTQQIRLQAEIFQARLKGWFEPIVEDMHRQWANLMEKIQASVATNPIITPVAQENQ
- PROCEDURE DETAILS: pH affinity ELISA, coated mouse ApoE, pH 6.0
Provide the recorded EC50 for the entries that follow.
One number for each entry, in µg/mL.

BAP191.01-CPE-HC-M099E (antibody, V domains shown) VH: QIQLVQSGPELKKPGETVKISCKASGYTFTTAGMQWVQKMPGKGFKWIGWINTHSGEPKYAEDFKGRFAFSLETSASTAYLQISNLKNEDTATYFCAREGGYAMDYWGQGTSVTVSS VL: DIKLTQSPSSMYASLGERVTITCKASEDINSYLSWFQQKPGKSPKTLIYRANRLVDGVPSRFSGSGSGQDYSLTISSLEYEDMGIYYCLQYDEFPLTFGAGTKLELT; 0.573
BAP191-01-CPE-HC-M034D (antibody, V domains shown) VH: QIQLVQSGPELKKPGETVKISCKASGYTFTTAGDQWVQKMPGKGFKWIGWINTHSGEPKYAEDFKGRFAFSLETSASTAYLQISNLKNEDTATYFCARMGGYAMDYWGQGTSVTVSS VL: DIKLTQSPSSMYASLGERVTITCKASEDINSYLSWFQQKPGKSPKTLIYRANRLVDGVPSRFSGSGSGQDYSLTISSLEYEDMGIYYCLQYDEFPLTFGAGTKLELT; 0.105
BAP191.01-CPE-LC-P095D (antibody, V domains shown) VH: QIQLVQSGPELKKPGETVKISCKASGYTFTTAGMQWVQKMPGKGFKWIGWINTHSGEPKYAEDFKGRFAFSLETSASTAYLQISNLKNEDTATYFCARMGGYAMDYWGQGTSVTVSS VL: DIKLTQSPSSMYASLGERVTITCKASEDINSYLSWFQQKPGKSPKTLIYRANRLVDGVPSRFSGSGSGQDYSLTISSLEYEDMGIYYCLQYDEFDLTFGAGTKLELT; 0.146
BAP191.01-CPE-HC-I051D (antibody, V domains shown, also called BAP191.01-CPE-HC-1051D) VH: QIQLVQSGPELKKPGETVKISCKASGYTFTTAGMQWVQKMPGKGFKWIGWDNTHSGEPKYAEDFKGRFAFSLETSASTAYLQISNLKNEDTATYFCARMGGYAMDYWGQGTSVTVSS VL: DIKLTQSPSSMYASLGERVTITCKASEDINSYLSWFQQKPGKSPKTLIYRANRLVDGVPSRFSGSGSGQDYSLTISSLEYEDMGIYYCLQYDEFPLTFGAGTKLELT; 0.104
BAP191.01-CPE-HC-M104E (antibody, V domains shown) VH: QIQLVQSGPELKKPGETVKISCKASGYTFTTAGMQWVQKMPGKGFKWIGWINTHSGEPKYAEDFKGRFAFSLETSASTAYLQISNLKNEDTATYFCARMGGYAEDYWGQGTSVTVSS VL: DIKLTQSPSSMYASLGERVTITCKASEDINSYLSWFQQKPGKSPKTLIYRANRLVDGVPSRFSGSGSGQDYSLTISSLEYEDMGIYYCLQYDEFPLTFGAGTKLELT; 1.09
Anti-ApoE wildtype antibody BAP191.01-WT (antibody, V domains shown, also called benchmark; parent) VH: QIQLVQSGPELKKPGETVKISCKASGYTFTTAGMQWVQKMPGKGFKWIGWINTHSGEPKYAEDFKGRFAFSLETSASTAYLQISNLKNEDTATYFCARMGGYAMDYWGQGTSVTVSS VL: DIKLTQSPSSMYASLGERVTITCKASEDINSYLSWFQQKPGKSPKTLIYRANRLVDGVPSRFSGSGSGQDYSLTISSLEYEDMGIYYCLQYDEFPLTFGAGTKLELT; 0.0926

May I ask what EC50 has been recorded for BAP191.01-CPE-HC-R098E (antibody, V domains shown) VH: QIQLVQSGPELKKPGETVKISCKASGYTFTTAGMQWVQKMPGKGFKWIGWINTHSGEPKYAEDFKGRFAFSLETSASTAYLQISNLKNEDTATYFCAEMGGYAMDYWGQGTSVTVSS VL: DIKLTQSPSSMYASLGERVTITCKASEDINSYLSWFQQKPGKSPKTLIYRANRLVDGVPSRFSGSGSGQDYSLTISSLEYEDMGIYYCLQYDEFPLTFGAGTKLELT ?
0.163

The reported numbers originate from patent US20240400659A1.
